- measured_on: GST-Aq-NF-kB (Amphimedon queenslandica, UniProt A9Y5G7 2-389)
- Sequence: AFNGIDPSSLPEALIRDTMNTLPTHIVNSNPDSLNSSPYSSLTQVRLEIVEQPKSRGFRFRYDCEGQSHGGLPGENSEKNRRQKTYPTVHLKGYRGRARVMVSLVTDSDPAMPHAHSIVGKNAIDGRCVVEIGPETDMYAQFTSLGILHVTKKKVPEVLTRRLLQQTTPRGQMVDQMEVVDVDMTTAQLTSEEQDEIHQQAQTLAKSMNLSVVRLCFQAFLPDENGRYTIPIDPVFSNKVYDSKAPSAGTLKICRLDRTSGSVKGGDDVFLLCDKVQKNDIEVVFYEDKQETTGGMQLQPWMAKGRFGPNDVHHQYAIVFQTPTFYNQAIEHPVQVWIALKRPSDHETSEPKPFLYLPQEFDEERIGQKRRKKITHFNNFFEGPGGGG
- test_description: protein-binding microarray (PBM); PBM: ~300 nM protein, 6 mM HEPES pH 7.8, 80 mM KCl, 0.5 mM EDTA, 0.5 mM EGTA, 6% glycerol, 35 ng/ul poly-dIdC, 1% milk, 1 h, room temperature; high values mean tight binding
- particulars: dsDNA, one strand shown
readout_label: binding signal
Answer as a quantity: numeral, then unit.

QUERY: Param item = CCGATTAACATCAGGGGGAAGACTGATGTTAATCGGGTCTTGATTCGCTTGACGCTGCTG ; retrieve measured binding signal.
RESULT: 5.25 z-score

QUERY: Param item = CCGATTAACATCAAATTTCCCCTTGATGTTAATCGGGTCTTGATTCGCTTGACGCTGCTG ; retrieve measured binding signal.
RESULT: 8.06 z-score

QUERY: Param item = CCGATTAACATCAGGGGACGTTATGATGTTAATCGGGTCTTGATTCGCTTGACGCTGCTG ; retrieve measured binding signal.
RESULT: 4.72 z-score

QUERY: Param item = CCGATTAACATCAAGGGGAAAAATGATGTTAATCGGGTCTTGATTCGCTTGACGCTGCTG ; retrieve measured binding signal.
RESULT: 6.11 z-score

QUERY: Param item = CCGATTAACATCAGAAATGGGAATGATGTTAATCGGGTCTTGATTCGCTTGACGCTGCTG ; retrieve measured binding signal.
RESULT: 2.5 z-score

QUERY: Param item = CCGATTAACATCAACGAATCCCCTGATGTTAATCGGGTCTTGATTCGCTTGACGCTGCTG ; retrieve measured binding signal.
RESULT: 3.82 z-score

QUERY: Param item = CCGATTAACATCAAAAATTCCGCTGATGTTAATCGGGTCTTGATTCGCTTGACGCTGCTG ; retrieve measured binding signal.
RESULT: 1.89 z-score

QUERY: Param item = CCGATTAACATCAATTGCCCCCCTGATGTTAATCGGGTCTTGATTCGCTTGACGCTGCTG ; retrieve measured binding signal.
RESULT: 4.63 z-score

QUERY: Param item = CCGATTAACATCAAAATGTCCCCTGATGTTAATCGGGTCTTGATTCGCTTGACGCTGCTG ; retrieve measured binding signal.
RESULT: 5.89 z-score

QUERY: Param item = CCGATTAACATCAGATATTCCCATGATGTTAATCGGGTCTTGATTCGCTTGACGCTGCTG ; retrieve measured binding signal.
RESULT: 2.67 z-score

QUERY: Param item = CCGATTAACATCAAAAATCCCTATGATGTTAATCGGGTCTTGATTCGCTTGACGCTGCTG ; retrieve measured binding signal.
RESULT: 5.85 z-score

QUERY: Param item = CCGATTAACATCAAAAATCCCATTGATGTTAATCGGGTCTTGATTCGCTTGACGCTGCTG ; retrieve measured binding signal.
RESULT: 3.96 z-score

QUERY: Param item = CCGATTAACATCAGGGGGCAATATGATGTTAATCGGGTCTTGATTCGCTTGACGCTGCTG ; retrieve measured binding signal.
RESULT: 3.54 z-score

QUERY: Param item = CCGATTAACATCAAAAACTCCCATGATGTTAATCGGGTCTTGATTCGCTTGACGCTGCTG ; retrieve measured binding signal.
RESULT: 5.3 z-score

QUERY: Param item = CCGATTAACATCAAATATCCCCATGATGTTAATCGGGTCTTGATTCGCTTGACGCTGCTG ; retrieve measured binding signal.
RESULT: 4.67 z-score

QUERY: Param item = CCGATTAACATCAAAATTCCCTATGATGTTAATCGGGTCTTGATTCGCTTGACGCTGCTG ; retrieve measured binding signal.
RESULT: 6.99 z-score

QUERY: Param item = CCGATTAACATCAGGGGAGGTTATGATGTTAATCGGGTCTTGATTCGCTTGACGCTGCTG ; retrieve measured binding signal.
RESULT: 3.84 z-score

QUERY: Param item = CCGATTAACATCAGGGGCTTACCTGATGTTAATCGGGTCTTGATTCGCTTGACGCTGCTG ; retrieve measured binding signal.
RESULT: 7.25 z-score

* * *

- measured_on: GST-Co-NF-kB (Capsaspora owczarzaki, UniProt F1ARL5 200-546)
- Sequence: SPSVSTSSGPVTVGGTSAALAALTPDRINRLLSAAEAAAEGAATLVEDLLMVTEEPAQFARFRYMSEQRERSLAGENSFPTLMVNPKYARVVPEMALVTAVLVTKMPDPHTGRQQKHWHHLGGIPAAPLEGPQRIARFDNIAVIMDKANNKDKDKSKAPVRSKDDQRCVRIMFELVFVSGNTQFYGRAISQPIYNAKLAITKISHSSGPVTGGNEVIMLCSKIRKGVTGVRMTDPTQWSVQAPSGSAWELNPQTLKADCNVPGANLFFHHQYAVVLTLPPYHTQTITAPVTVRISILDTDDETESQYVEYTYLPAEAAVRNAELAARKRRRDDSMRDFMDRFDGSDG
- test_description: protein-binding microarray (PBM); PBM: ~300 nM protein, 6 mM HEPES pH 7.8, 80 mM KCl, 0.5 mM EDTA, 0.5 mM EGTA, 6% glycerol, 35 ng/ul poly-dIdC, 1% milk, 1 h, room temperature; high values mean tight binding
- particulars: dsDNA, one strand shown
Please respond with reported binding signal for every item in the list.
Reply numerically in z-score, unit not repeated.

QUERY: Param item = CCGATTAACATCAGGATTATCCCTGATGTTAATCGGGTCTTGATTCGCTTGACGCTGCTG ; retrieve measured binding signal.
RESULT: 2.37

QUERY: Param item = CCGATTAACATCAAATGCCCCCCTGATGTTAATCGGGTCTTGATTCGCTTGACGCTGCTG ; retrieve measured binding signal.
RESULT: 5.28

QUERY: Param item = CCGATTAACATCAGGGCCCCCCCTGATGTTAATCGGGTCTTGATTCGCTTGACGCTGCTG ; retrieve measured binding signal.
RESULT: 2.89

QUERY: Param item = CCGATTAACATCAAAGTGTCCCCTGATGTTAATCGGGTCTTGATTCGCTTGACGCTGCTG ; retrieve measured binding signal.
RESULT: 5.15

QUERY: Param item = CCGATTAACATCACGGGGATCCCTGATGTTAATCGGGTCTTGATTCGCTTGACGCTGCTG ; retrieve measured binding signal.
RESULT: 4.27

* * *

Please respond with reported binding signal for every item in the list.
- measured_on: GST-Nv-NF-kB (Cys allele) (Nematostella vectensis, UniProt E5G601 2-411)
- Sequence: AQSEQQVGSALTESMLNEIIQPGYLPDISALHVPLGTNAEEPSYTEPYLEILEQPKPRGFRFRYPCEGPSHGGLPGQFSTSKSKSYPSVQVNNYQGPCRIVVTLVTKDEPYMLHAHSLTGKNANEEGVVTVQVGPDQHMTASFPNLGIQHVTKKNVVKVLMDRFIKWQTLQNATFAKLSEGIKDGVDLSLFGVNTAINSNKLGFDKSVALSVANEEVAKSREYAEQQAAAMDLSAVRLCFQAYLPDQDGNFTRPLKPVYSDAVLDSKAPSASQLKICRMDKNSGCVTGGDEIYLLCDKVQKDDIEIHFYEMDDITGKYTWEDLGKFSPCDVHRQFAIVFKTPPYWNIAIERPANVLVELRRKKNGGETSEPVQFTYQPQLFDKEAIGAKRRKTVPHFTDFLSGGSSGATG
- test_description: protein-binding microarray (PBM); PBM: ~300 nM protein, 6 mM HEPES pH 7.8, 80 mM KCl, 0.5 mM EDTA, 0.5 mM EGTA, 6% glycerol, 35 ng/ul poly-dIdC, 1% milk, 1 h, room temperature; Ap Aiptasia and Nv Nematostella (sea anemones) / Co Capsaspora / Aq Amphimedon (sponge) / Dm Drosophila / Hu human; RHD is the Rel homology domain; high values mean tight binding
- particulars: dsDNA, one strand shown
Answer as a quantity: numeral, then unit.

QUERY: Param item = CCGATTAACATCAAGGGGGGAGATGATGTTAATCGGGTCTTGATTCGCTTGACGCTGCTG ; retrieve measured binding signal.
RESULT: 5.1 z-score

QUERY: Param item = CCGATTAACATCAAAGAAGCCCCTGATGTTAATCGGGTCTTGATTCGCTTGACGCTGCTG ; retrieve measured binding signal.
RESULT: 5.52 z-score

QUERY: Param item = CCGATTAACATCAGGGGGTTTCATGATGTTAATCGGGTCTTGATTCGCTTGACGCTGCTG ; retrieve measured binding signal.
RESULT: 7.15 z-score

QUERY: Param item = CCGATTAACATCAGGGGGGACAATGATGTTAATCGGGTCTTGATTCGCTTGACGCTGCTG ; retrieve measured binding signal.
RESULT: 4.19 z-score

QUERY: Param item = CCGATTAACATCAAAAGCCCCCTTGATGTTAATCGGGTCTTGATTCGCTTGACGCTGCTG ; retrieve measured binding signal.
RESULT: 6.73 z-score
